These entries and their values trace back to ChEMBL document CHEMBL3860048.

// Tmax lookup, one value per entry
- MEASUREMENT_NOTES: Tmax in Sprague-Dawley rat plasma at 1 mg/kg, sc by LC/MS analysis
- Format: ADME, organism-based
Where a SMILES comes first, the peptide text is derived from it. [ ]: non-standard residue; d: D form. Phe(3-F) = N[C@@H](Cc1cccc(F)c1)C(=O)O; Arg(Me) = CNC(=N)NCCC[C@H](N)C(=O)O; azaGly = NNC(=O)O
ENDPOINT_LABEL: Tmax (min)

• CNC(=N)NCCC[C@H](NC(=O)[C@H](CC(C)C)NC(=O)NNC(=O)[C@H](Cc1cccc(F)c1)NC(=O)[C@@H](NC(=O)[C@H](CC(N)=O)NC(=O)[C@H](CCC(=O)O)NC(=O)[C@@H](Cc1ccc(O)cc1)NC(C)=O)[C@@H](C)O)C(=O)N[C@@H](Cc1c[nH]c2ccccc12)C(N)=O (Ac-[dY]ENT[Phe(3-F)][azaGly]L[Arg(Me)]W-NH2) = 23.4
• CNC(=N)NCCC[C@H](NC(=O)[C@H](CC(C)C)NC(=O)NNC(=O)[C@H](Cc1ccccc1)NC(=O)[C@@H](NC(=O)[C@H](CC(N)=O)NC(=O)[C@@H]1C[C@@H](O)CN1C(=O)[C@@H](Cc1ccc(O)cc1)NC(C)=O)[C@@H](C)O)C(=O)N[C@@H](Cc1c[nH]c2ccccc12)C(N)=O = 19.8

---

- MEASUREMENT_NOTES: Bioavailability in Sprague-Dawley rat plasma at 1 mg/kg, sc up to 24 hrs by LC/MS analysis
- Format: ADME, organism-based
Where a SMILES comes first, the peptide text is derived from it. [ ]: non-standard residue; d: D form. Phe(3-F) = N[C@@H](Cc1cccc(F)c1)C(=O)O; Arg(Me) = CNC(=N)NCCC[C@H](N)C(=O)O; azaGly = NNC(=O)O
Items are presented alongside their recorded bioavailability.
ENDPOINT_LABEL: bioavailability

- CNC(=N)NCCC[C@H](NC(=O)[C@H](CC(C)C)NC(=O)NNC(=O)[C@H](Cc1ccccc1)NC(=O)[C@@H](NC(=O)[C@H](CC(N)=O)NC(=O)[C@@H]1C[C@@H](O)CN1C(=O)[C@@H](Cc1ccc(O)cc1)NC(C)=O)[C@@H](C)O)C(=O)N[C@@H](Cc1c[nH]c2ccccc12)C(N)=O: 43.9%
- CNC(=N)NCCC[C@H](NC(=O)[C@H](CC(C)C)NC(=O)NNC(=O)[C@H](Cc1cccc(F)c1)NC(=O)[C@@H](NC(=O)[C@H](CC(N)=O)NC(=O)[C@H](CCC(=O)O)NC(=O)[C@@H](Cc1ccc(O)cc1)NC(C)=O)[C@@H](C)O)C(=O)N[C@@H](Cc1c[nH]c2ccccc12)C(N)=O (Ac-[dY]ENT[Phe(3-F)][azaGly]L[Arg(Me)]W-NH2): 94.5%

---

- TESTED_ON: KiSS-1 receptor (Rattus norvegicus)
- Sequence (Q924U1 whole entry): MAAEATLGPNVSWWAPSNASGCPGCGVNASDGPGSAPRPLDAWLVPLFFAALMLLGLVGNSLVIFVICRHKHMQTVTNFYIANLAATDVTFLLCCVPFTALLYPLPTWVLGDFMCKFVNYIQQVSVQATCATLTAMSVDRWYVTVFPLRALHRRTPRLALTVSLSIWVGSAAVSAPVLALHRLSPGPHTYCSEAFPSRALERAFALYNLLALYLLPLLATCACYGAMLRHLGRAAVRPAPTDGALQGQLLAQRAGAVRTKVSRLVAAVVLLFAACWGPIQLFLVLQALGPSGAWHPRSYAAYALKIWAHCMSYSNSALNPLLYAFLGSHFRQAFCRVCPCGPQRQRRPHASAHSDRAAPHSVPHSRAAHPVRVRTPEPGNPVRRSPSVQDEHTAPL
- MEASUREMENT_NOTES: Agonist activity at rat KISS1R expressed in CHO/dhfr cells assessed as increase in intracellular Ca2+ levels measured for 180 secs by Fluo 3-AM dye based FLIPR assay
Where a SMILES comes first, the peptide text is derived from it. [ ]: non-standard residue; d: D form. Phe(3-F) = N[C@@H](Cc1cccc(F)c1)C(=O)O; Arg(Me) = CNC(=N)NCCC[C@H](N)C(=O)O; Aib = CC(C)(N)C(=O)O; azaGly = NNC(=O)O
The entries below are paired with their reported EC50.
ENDPOINT_LABEL: EC50 (nM)

• CNC(=N)NCCC[C@H](NC(=O)[C@H](CC(C)C)NC(=O)NNC(=O)[C@H](Cc1cccc(F)c1)NC(=O)[C@@H](NC(=O)[C@H](CC(N)=O)NC(=O)C(C)(C)NC(=O)[C@@H](Cc1ccc(O)cc1)NC(C)=O)[C@@H](C)O)C(=O)N[C@@H](Cc1c[nH]c2ccccc12)C(N)=O (Ac-[dY][Aib]NT[Phe(3-F)][azaGly]L[Arg(Me)]W-NH2) = 7
• CNC(=N)NCCC[C@H](NC(=O)[C@H](CC(C)C)NC(=O)NNC(=O)[C@H](Cc1ccccc1)NC(=O)[C@@H](NC(=O)[C@H](CC(N)=O)NC(=O)[C@@H]1C[C@@H](O)CN1C(=O)[C@@H](Cc1ccc(O)cc1)NC(C)=O)[C@@H](C)O)C(=O)N[C@@H](Cc1c[nH]c2ccccc12)C(N)=O = 36
• CNC(=N)NCCC[C@H](NC(=O)[C@H](CC(C)C)NC(=O)NNC(=O)[C@H](Cc1ccccc1)NC(=O)[C@@H](NC(=O)[C@H](CC(N)=O)NC(=O)[C@@H](CCCCN)NC(=O)[C@@H](Cc1ccc(O)cc1)NC(C)=O)[C@@H](C)O)C(=O)N[C@@H](Cc1c[nH]c2ccccc12)C(N)=O = 18
